# test: Plasma concentrations (PK), Example 1
# Assay type: in vivo, human
# condition-context: human, plasma, oral, 25 mg, 25 mg QD; Week 8; Intermediate; read-out: Plasma concentration, Median
endpoint-name: level at 1344 h (ng/mL)
# number only, unit ng/mL dropped from output

# level at 1344 h (compound: CC(=O)NCCCC[C@@H]1NC(=O)[C@H](Cc2c[nH]c3c(C)cccc23)NC(=O)[C@H]([C@@H](C)O)NC(=O)[C@H](CC(N)=O)NC(=O)[C@@H](NC(C)=O)C(C)(C)SSC(C)(C)[C@@H](C(=O)N[C@@H](Cc2ccc(OCCN)cc2)C(=O)N[C@@H](Cc2ccc3ccccc3c2)C(=O)NC2(C(=O)N[C@@H](CCC(=O)O)C(=O)N[C@@H](CC(N)=O)C(=O)N[C@@H](Cc3cccnc3)C(=O)N(C)CC(N)=O)CCOCC2)NC1=O [IL-23 receptor antagonist peptide] ) is 0.177
